Target: STAT6 (Homo sapiens, UniProt P42226)
Construct: endogenous in cells; host or cells: MOLM-16, KU-812, SKNO1, MB231, L1236
Sequence (P42226 whole entry): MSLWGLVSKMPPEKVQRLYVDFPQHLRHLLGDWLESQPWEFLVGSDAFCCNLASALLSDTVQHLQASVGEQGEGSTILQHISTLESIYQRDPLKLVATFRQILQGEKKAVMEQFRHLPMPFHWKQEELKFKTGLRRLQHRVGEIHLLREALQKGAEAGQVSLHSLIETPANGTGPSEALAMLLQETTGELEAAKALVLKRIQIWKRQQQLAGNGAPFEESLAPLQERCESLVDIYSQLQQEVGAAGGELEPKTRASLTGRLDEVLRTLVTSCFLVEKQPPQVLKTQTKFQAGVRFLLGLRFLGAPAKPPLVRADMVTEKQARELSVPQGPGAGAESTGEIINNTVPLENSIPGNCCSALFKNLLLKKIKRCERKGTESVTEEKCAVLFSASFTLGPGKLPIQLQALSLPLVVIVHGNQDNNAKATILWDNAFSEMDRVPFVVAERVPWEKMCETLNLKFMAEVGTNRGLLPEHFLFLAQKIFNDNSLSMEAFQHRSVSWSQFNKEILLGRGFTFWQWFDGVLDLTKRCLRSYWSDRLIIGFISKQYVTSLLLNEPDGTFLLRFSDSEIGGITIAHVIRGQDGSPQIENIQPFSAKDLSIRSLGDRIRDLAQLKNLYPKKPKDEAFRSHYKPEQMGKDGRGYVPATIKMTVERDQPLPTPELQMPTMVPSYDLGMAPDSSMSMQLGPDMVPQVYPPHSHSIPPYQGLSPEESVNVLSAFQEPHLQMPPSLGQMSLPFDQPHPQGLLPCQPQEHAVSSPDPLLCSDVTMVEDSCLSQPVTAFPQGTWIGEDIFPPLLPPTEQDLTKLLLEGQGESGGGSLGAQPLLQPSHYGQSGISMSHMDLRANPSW
Assay: Immunoblotting (Western blot) analysis of STAT6 degradation efficiency of degraders in treated cells
Assay type: cell-based
Conditions: MOLM-16 cells, class symbols, read-out: DC50 S6 MOLM-16
This section presents molecules with their documented DC50 values.

• CC(C)(C)[C@H](NC(=O)c1cc2cc(C(F)(F)P(=O)(O)O)ccc2s1)C(=O)N1C[C@@H](OCCCCCCCCC#Cc2cccc3c2CN(C2CCC(=O)NC2=O)C3=O)C[C@H]1C(=O)N1CCO[C@H](c2ccccc2)C1 (stereo partly shown) = < 0.1 µM
• CC(C)(C)[C@H](NC(=O)c1cc2cc(C(F)(F)P(=O)(O)O)ccc2s1)C(=O)N1C[C@@H](OCC(=O)NCCCC#Cc2cccc3c2C(=O)N(C2CCC(=O)NC2=O)C3=O)C[C@H]1C(=O)N1CCO[C@H](c2ccccc2)C1 (stereo partly shown) = 1 to 10 µM

Query :: Please look up its DC50: CC(C)(C)[C@H](NC(=O)c1cc2cc(C(F)(F)P(=O)(O)O)ccc2s1)C(=O)N1Cc2cc(OCC(=O)NCCCCCCCCCC#Cc3cccc4c3C(=O)N(C3CCC(=O)NC3=O)C4=O)ccc2C[C@H]1C(=O)N1CCC[C@H](c2ccccc2)C1 (stereo partly shown)
Result :: > 10 µM

Query :: Please look up its DC50: `Cc1ncsc1-c1ccc([C@H](C)NC(=O)[C@@H]2C[C@@H](O)CN2C(=O)[C@@H](NC(=O)CCCCCCNC(=O)CO[C@H]2C[C@@H](C(=O)N3CCC[C@H](c4ccccc4)C3)N(C(=O)[C@@H](NC(=O)c3cc4cc(C(F)(F)P(=O)(O)O)ccc4s3)C(C)(C)C)C2)C(C)(C)C)cc1`
Result :: > 10 µM
